Hey, just so you know, these numbers are from paper PMC11714206.

molecular target: MAL^TIR (Homo sapiens); construct: MAL (residues 79–221); 6xHis; made in house; host or cells: E. coli BL21 (DE3); experiment: T‐Surf phage library (P8 and P3) selection against MAL^TIR, four rounds, NGS read counts; assay type: binding; details: P8 library, 4R selection against MAL, rank before grouping
Sequence (P58753 79-221): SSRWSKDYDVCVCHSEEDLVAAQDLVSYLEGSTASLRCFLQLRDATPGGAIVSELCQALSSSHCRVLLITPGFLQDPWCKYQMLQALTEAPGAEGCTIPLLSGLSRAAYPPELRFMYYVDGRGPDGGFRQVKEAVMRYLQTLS
quantity_measured: P8_MAL Rank (before)

Consider the worked cases shown below.
{"columns": ["chain", "measurement_target", "quantity_measured", "measured_result"],
 "data": [
  ["AFLYTFLINLPHTNNF", "MAL^TIR (Homo sapiens)", "P8_MAL Rank (before)", 1838],
  ["AFFCAQLKSVMGNPTI", "MAL^TIR (Homo sapiens)", "P8_MAL Rank (before)", 1585],
  ["QLIQQLIELHLDQLHL", "MAL^TIR (Homo sapiens)", "P8_MAL Rank (before)", 2349],
  ["WFYERLVNLILRDTIV", "MAL^TIR (Homo sapiens)", "P8_MAL Rank (before)", 1241],
  ["HFYWILLKSILGETRL", "MAL^TIR (Homo sapiens)", "P8_MAL Rank (before)", 2426],
  ["WFYEPLVSQITRDTKV", "MAL^TIR (Homo sapiens)", "P8_MAL Rank (before)", 1294],
  ["SEFIQKITLGMNPKIG", "MAL^TIR (Homo sapiens)", "P8_MAL Rank (before)", 2481],
  ["AFFWPKLKSGLGNPTM", "MAL^TIR (Homo sapiens)", "P8_MAL Rank (before)", 1717]
]}

a = DAEDMFWTQLREALDA
b = LFYERLVSLILRHTRV
Compare a and b and name the one whose reported P8_MAL Rank (before) is smaller. Refer to your chosen item by its label in the answer. b

P = AFYGPLLSLILRDTKM
Q = TFLGHLYMRWCRRAF
Between the two listed entries P and Q , which has its P8_MAL Rank (before) at the higher number? Refer to your chosen item by its label in the answer. Q
(Q: 2560, P: 1790)

A = RFYEAQLILVLRNTKM
B = AFFWAQLKQLLRSDGR
C = FTLSVHVRNWLAGAFI
rank_up(items): orders items by reported P8_MAL Rank (before) in ascending numerical order. Please list each label once, in the requested order. C, B, A
(C: 1091, B: 1610, A: 2302)

a = RNFVAYLFQALAKKGS
b = WFYERLVGLILRETEG
Between the two listed entries a and b , which has its P8_MAL Rank (before) at the higher number? Refer to your chosen item by its label in the answer. a
(a: 2191, b: 1163)

P = AFLYTFLFNLTHQTNS
Q = WFYERLVRLILRDNKV
Compare P and Q and name the one whose reported P8_MAL Rank (before) is smaller. Refer to your chosen item by its label in the answer. Q

I = RNLVAYLLQPRANKCI
II = YFLHFLLFNRPETNYI
Compare I and II and name the one whose reported P8_MAL Rank (before) is smaller. Refer to your chosen item by its label in the answer. II
(II: 1467, I: 2242)

I = RNLVAYQFQALPNKGI
II = WLYERLVGLILRYTKV
Compare I and II and name the one whose reported P8_MAL Rank (before) is smaller. Refer to your chosen item by its label in the answer. II

A = LFLGESLKLLRRSDGR
B = WFYGRLVSLMLRDAKR
Between the two listed entries A and B , which has its P8_MAL Rank (before) at the higher number? Refer to your chosen item by its label in the answer. A
